Molecular target: transformed Ah receptor/ARNT complex (Cavia porcellus, UniProt Q6J287)
Sequence (Q6J287 1-846): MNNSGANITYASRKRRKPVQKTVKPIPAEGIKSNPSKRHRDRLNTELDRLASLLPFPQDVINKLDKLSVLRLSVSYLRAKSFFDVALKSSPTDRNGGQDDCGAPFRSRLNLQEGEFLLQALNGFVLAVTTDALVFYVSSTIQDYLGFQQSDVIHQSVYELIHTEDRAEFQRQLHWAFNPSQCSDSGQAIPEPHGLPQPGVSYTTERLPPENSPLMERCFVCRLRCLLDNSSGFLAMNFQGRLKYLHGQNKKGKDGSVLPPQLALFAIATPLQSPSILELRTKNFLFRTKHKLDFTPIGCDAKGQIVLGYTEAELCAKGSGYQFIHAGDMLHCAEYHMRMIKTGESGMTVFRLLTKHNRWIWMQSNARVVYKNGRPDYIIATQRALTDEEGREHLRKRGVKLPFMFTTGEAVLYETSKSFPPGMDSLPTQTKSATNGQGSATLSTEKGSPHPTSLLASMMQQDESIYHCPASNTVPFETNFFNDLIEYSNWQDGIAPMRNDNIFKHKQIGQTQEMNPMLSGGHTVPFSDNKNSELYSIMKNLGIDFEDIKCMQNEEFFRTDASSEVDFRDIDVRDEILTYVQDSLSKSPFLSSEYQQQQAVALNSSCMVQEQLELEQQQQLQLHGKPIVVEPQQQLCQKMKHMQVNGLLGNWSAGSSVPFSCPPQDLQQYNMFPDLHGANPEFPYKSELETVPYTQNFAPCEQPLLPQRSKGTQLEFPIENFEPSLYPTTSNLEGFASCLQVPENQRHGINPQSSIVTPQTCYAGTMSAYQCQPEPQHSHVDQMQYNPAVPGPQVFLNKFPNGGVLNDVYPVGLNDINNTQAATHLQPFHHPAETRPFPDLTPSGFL
Sequence (Q0WXX3 1-790 partner): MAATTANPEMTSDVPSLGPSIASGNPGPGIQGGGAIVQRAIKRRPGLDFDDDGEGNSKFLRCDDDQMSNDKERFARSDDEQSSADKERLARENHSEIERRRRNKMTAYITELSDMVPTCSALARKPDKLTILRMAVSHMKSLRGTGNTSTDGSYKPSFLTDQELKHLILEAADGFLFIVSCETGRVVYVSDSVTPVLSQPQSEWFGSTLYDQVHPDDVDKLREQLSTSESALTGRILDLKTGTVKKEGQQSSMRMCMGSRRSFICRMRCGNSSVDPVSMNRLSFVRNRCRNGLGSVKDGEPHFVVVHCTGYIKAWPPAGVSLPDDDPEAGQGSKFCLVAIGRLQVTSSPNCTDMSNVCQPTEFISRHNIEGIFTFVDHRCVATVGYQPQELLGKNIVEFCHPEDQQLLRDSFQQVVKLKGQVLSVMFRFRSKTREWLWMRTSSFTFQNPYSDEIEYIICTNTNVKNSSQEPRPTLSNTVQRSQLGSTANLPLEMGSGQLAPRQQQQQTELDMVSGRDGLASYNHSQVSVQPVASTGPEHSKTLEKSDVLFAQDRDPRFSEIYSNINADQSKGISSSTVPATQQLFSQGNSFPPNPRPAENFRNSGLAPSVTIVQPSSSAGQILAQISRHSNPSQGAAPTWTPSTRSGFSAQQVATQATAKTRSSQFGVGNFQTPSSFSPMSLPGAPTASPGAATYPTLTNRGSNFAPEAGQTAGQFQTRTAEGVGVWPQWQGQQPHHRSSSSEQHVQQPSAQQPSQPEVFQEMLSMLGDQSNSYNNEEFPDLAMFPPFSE
Test: Ah-ELISA dose response using PnPP detection
Assay type: biochemical, guinea pig (hepatic cytosol)
Design: from tissue; host or cells: hepatic cytosol of male Hartley guinea pigs (animals from Cornell Research Animal Resources)
Conditions: PnPP detection, FIG. 6
TEST_READOUT: EC50

Clc1cc2c(cc1Cl)Oc1cc(Cl)c(Cl)cc1O2 ... ~248 pM
